System: HOP-92 NSCLC
assay_details: NCI tumour cell line growth inhibition, 48 h
quantity_measured: GI50

## Input Please look at this compound and report its GI50: NC(N)=NC(N)=NCCc1ccccc1
## Output 1510 nM

## Input Please indicate GI50 recorded for NC(=O)c1c(OCc2c(F)cc(Br)cc2F)nsc1NC(=O)NCCCCN1CCCC1
## Output 323 nM

## Input Report GI50 for COC(=O)c1c2c(c(C)[n+]([O-])c1C)C(=O)C(NCc1ccc(F)c(Cl)c1)=CC2=O
## Output 2520 nM

## Input Kindly indicate its recorded GI50. Item: O=C(Oc1ccc([N+](=O)[O-])cc1)N1CCC(C(O)(c2ccc3c(c2)OCO3)c2ccc3c(c2)OCO3)CC1
## Output > 52300 nM

## Input State, in one line, measured GI50 of O=C1C(Nc2ccccn2)=C(I)C(=O)c2ncccc21
## Output 1650 nM

## Input Read off the recorded GI50 for CCOC(=O)c1c(C)c2c(n1C)CSc1cc(S(=O)(=O)c3ccccc3)c(=O)[nH]c1-2
## Output 1110 nM

## Input Please report GI50 for the following compound: O=S(=O)(Nc1ccc(Cl)c(C(F)(F)F)c1)c1ccc(-c2cnc(C3CC3)o2)cc1
## Output 1040 nM

## Input Give me measured GI50, please, for this compound: COCCOC(C)C(/C=N/NC(N)=S)=N/NC(N)=S (configuration not stated)
## Output > 100000 nM

## Input # return recorded GI50 for input C[C@]12CC[C@@H]3c4ccc(O)cc4CC[C@H]3[C@@H]1CC[C@@H]2NS(=O)(=O)c1cccc(Br)c1
## Output 1850 nM

## Input Tell me measured GI50 for C/C=C(/C)C(=O)OC1C=C(CO)C(=O)C(OC(=O)/C(C)=C\C)C1C(C)C (configuration not stated) please.
## Output 528 nM

## Input Hello, please tell me recorded GI50 for this one: Cc1ccc(NC2=C(Cl)C(=O)c3nc(C)ccc3C2=O)cc1
## Output 1400 nM

## Input Answer with the recorded GI50 of CCN(C)S(=O)(=O)Nc1cccc(Nc2ncnc3cc(NC(=O)CCl)ccc23)c1Cl only.
## Output 3400 nM

* * *

System: COLO 205 colon
assay_details: NCI tumour cell line growth inhibition, 48 h
quantity_measured: TGI

## Input Please give measured TGI of the following entry: Clc1ccc2c(NCCCN3CCN(c4nc(-n5ccnc5)nc5ccccc45)CC3)ccnc2c1
## Output > 100 µM

## Input Report measured TGI; entry is NC(N)=NC(N)=NCCc1ccccc1
## Output > 100 µM

## Input Please look at this molecule and report its TGI: COc1cc(CNC(=O)CCCCCCCC/C=C/Br)ccc1O
## Output > 10 µM

## Input State its TGI: C=CCSc1n[nH]c(-c2cccs2)n1
## Output > 100 µM

## Input Given O=C(NCCNCCO)c1ccc2oc3cc4ccccc4c(=O)n3c2c1 , respond with its TGI.
## Output > 50 µM

## Input Identify measured TGI corresponding to Cc1cc(N2CCN(C)CC2)nc(NC2CCCC(Nc3ccnc4cc(Cl)ccc34)C2)n1 (stereo unspecified)
## Output 3.45 µM

## Input Look up TGI of Cn1ncc2c(NCCc3ccccc3)nc(Cl)nc21 and report it.
## Output 34.2 µM

## Input Give the measured TGI for CC1C(c2ccccc2O)c2cc3c(cc2OC1N1CCCC1)OCO3 (stereo unspecified)
## Output 55.5 µM

## Input Provide measured TGI value, entry: C[C@H](CCc1nc(C#N)c(N)o1)[C@H]1CC[C@H]2[C@@H]3[C@@H](O)CC4C[C@@H](O)CC[C@]4(C)[C@H]3C[C@@H](O)[C@]12C (stereo partly specified)
## Output 40.5 µM

## Input Give reported TGI value for CC(NC1CCC[C@H]1O)c1ccccc1 (mixture of isomers)
## Output > 100 µM

## Input Find the measured TGI of CSC(=S)NN=C1CCCCC1 and report it.
## Output > 100 µM

## Input Specify measured TGI for CC(=O)N1c2ccccc2C23CCN4CC5=CCOC(O)C(C5CC42)C13 (stereo unspecified) .
## Output > 100 µM

## Input Consider the molecule N#Cc1c(NC(=O)CCC(=O)O)ccc2ccccc12 . State its measured TGI.
## Output > 100 µM

## Input Specify measured TGI for COC(=O)[C@]1(c2cc3ccccc3[nH]2)CC2CN(CC(=O)N(C)OC)C1C1OC(C)(C)OC21 (stereo partly specified) .
## Output > 100 µM

## Input Give the reported value of TGI for this record: COCCOC(C)C(/C=N/NC(N)=S)=N/NC(N)=S (stereo unspecified)
## Output > 100 µM

## Input Please report the measured TGI for CC[C@H](CCCCC1CC[C@@H]2CC(=O)C[C@H]12)OC (stereo partly specified)
## Output > 100 µM

## Input Item O=C(Oc1ccc([N+](=O)[O-])cc1)N1CCC(C(O)(c2ccc3c(c2)OCO3)c2ccc3c(c2)OCO3)CC1 : provide TGI
## Output > 100 µM

## Input Specify TGI for COC(CNC(=O)C(C)NC(=O)C(C)NC(=O)c1ccccc1)OC (stereo unspecified) and stop.
## Output > 100 µM

## Input Respond only with TGI recorded for O=C(Nc1cc(C(F)(F)F)ccc1Cl)C(=O)C(C(=O)c1ccc2ccccc2c1)C1OC(=O)c2ccccc21 (stereo unspecified)
## Output 37.3 µM

## Input # return recorded TGI for entry N#Cc1c(N2CCOCC2)ncn(-c2ccccc2)c1=O
## Output > 100 µM

## Input Note down TGI recorded for CCCCCN(CCCCC)C(=O)[C@@H](CCC(=O)OCc1ccccc1)NC(=O)c1cc2ccccc2[nH]1
## Output > 100 µM
